Species on record: Ovis aries
Test: Selectivity ratio of ovine COX1 to ovine COX2 at 20 uM
Readout type: Selectivity ratio

A. CS(=O)(=O)c1ccc(C2Nc3ccccc3C(=O)N2c2ccccc2)cc1 (configuration not stated)
B. CS(=O)(=O)c1ccc(C2Nc3ccccc3C(=O)N2c2ccccc2F)cc1 (configuration not stated)
C. CSc1ccc(C2Nc3ccccc3C(=O)N2c2ccc(Cl)cc2)cc1 (configuration not stated)
Order all 3 entries above by recorded Selectivity ratio, highest first, lowest last. List each label, following the requested order. A, B, C

###

Molecular target: Prostaglandin G/H synthase 1 (Ovis aries) (UniProt P05979)
Sequence (whole entry): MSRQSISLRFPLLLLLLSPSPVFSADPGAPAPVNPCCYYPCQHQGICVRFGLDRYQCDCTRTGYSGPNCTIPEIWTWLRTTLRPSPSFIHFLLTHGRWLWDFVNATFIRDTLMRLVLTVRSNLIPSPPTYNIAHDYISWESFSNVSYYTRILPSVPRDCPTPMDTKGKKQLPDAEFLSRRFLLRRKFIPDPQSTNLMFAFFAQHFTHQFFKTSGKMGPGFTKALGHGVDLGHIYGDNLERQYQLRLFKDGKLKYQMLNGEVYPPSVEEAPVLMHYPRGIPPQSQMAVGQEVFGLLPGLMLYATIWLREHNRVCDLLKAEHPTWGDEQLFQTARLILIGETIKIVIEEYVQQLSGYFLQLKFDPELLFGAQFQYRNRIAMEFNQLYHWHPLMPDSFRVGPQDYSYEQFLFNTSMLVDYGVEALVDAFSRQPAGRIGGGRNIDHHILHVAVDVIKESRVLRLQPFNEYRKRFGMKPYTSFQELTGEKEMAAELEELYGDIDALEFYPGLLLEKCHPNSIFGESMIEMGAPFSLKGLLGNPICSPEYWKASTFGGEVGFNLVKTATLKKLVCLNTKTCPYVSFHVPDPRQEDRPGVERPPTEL
Assay: Inhibition of ovine COX1 peroxidase activity assessed as TMPD oxidation at 20 uM by colorimetric analysis
The source made the active and inactive calls. No cut-off for these calls is given here.
Readout type: inhibition

Take a look at these entries with their results.
                                   compound  value_observed
0  COc1ccc(N2C(=O)c3ccccc3NC2c2ccc(S(C)(=O)=O)cc2)cc1 (configuration not stated)             41%
1  CS(=O)(=O)c1ccc(C2Nc3ccccc3C(=O)N2c2ccccc2)cc1 (configuration not stated)             49%
2  Cc1ccc(N2C(=O)c3ccccc3NC2c2ccc(S(C)(=O)=O)cc2)cc1 (configuration not stated)        inactive
3  CSc1ccc(C2Nc3ccccc3C(=O)N2c2ccc(Cl)cc2)cc1 (configuration not stated)              5%
4  CS(=O)(=O)c1ccc(C2Nc3ccccc3C(=O)N2c2ccc(F)cc2)cc1 (configuration not stated)        inactive

Find the recorded inhibition belonging to CS(=O)(=O)c1ccc(C2Nc3ccccc3C(=O)N2c2ccc(Cl)cc2)cc1 (configuration not stated) and report it. inactive

CS(=O)(=O)c1ccc(C2Nc3ccccc3C(=O)N2c2ccccc2F)cc1 (configuration not stated) ? 15%
